- target: MaxL homodimer (Homo sapiens, UniProt P61244 1-160)
- Sequence (P61244 whole entry): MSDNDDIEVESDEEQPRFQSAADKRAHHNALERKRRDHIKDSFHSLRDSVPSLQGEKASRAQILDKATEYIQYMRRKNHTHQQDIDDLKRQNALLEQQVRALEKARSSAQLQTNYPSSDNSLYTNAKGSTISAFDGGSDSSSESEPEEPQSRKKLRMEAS
- assay-overview: universal protein-binding microarray (PBM); PBS-based mixture, 10 nM His-tagged protein dimer, 2% milk, 200 ng/uL BSA, 50 ng/uL salmon testes DNA, 0.02% TX-100; detection with Alexa 488 anti-His antibody;; high values mean tight binding;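 also: fluorescence intensity normalized to that of the highest-ranked 8-mer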
- test-conditions: protein: recombinant; tags: C-terminal His-tag (pET21a); chain copies: 2; dsDNA, one strand shown
Whole data set: some 33,000 sequences, median “normalized occupancy” near 0.075, cut for the highest 2% near 0.095. The entries come from a sample that favours the highest values as a whole.
value-type: binding signal (normalized occupancy)
Enter your answer as a number in normalized occupancy; do not include the unit.

[Q] Return value of binding signal for input ACCCACCA , no commentary.
[A] 0.088

[Q] Return value of binding signal for input AGGCACGC , no commentary.
[A] 0.0914

[Q] Return value of binding signal for input CATGAGTC , no commentary.
[A] 0.091

[Q] Return value of binding signal for input ACCCACGA , no commentary.
[A] 0.0913

----------
- target: MaxL homodimer (Homo sapiens, UniProt P61244 1-160)
- assay-overview: universal protein-binding microarray (PBM); PBS-based mixture, 10 nM His-tagged protein dimer, 2% milk, 200 ng/uL BSA, 50 ng/uL salmon testes DNA, 0.02% TX-100; detection with Alexa 488 anti-His antibody;; high values mean tight binding;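 also: fluorescence intensity normalized to that of the highest-ranked 8-mer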
- test-conditions: protein: recombinant; tags: C-terminal His-tag (pET21a); chain copies: 2; dsDNA, one strand shown
Whole data set: some 33,000 sequences, median “normalized occupancy” near 0.075, cut for the highest 2% near 0.095. Shown is part of a subset that was picked to be rich in the highest values.
Field: binding signal. Provide a value for each of the sequences that follow.
Enter your answer as a number in normalized occupancy; do not include the unit.

[Q] Return value of binding signal for input TCTCCAAA , no commentary.
[A] 0.0803

[Q] Return value of binding signal for input AATGTGAT , no commentary.
[A] 0.101

[Q] Return value of binding signal for input ACGCACGT , no commentary.
[A] 0.0986

[Q] Return value of binding signal for input CATGTGTC , no commentary.
[A] 0.125

[Q] Return value of binding signal for input CATGTTCG , no commentary.
[A] 0.0882

[Q] Return value of binding signal for input GATGTGTA , no commentary.
[A] 0.0848

[Q] Return value of binding signal for input ACGCACGG , no commentary.
[A] 0.0828

[Q] Return value of binding signal for input AGGTCTCA , no commentary.
[A] 0.074

[Q] Return value of binding signal for input CGACTAAA , no commentary.
[A] 0.0736

[Q] Return value of binding signal for input AAGCACGG , no commentary.
[A] 0.0779

----------
- target: MaxL homodimer (Homo sapiens, UniProt P61244 1-160)
- assay-overview: universal protein-binding microarray (PBM); PBS-based mixture, 10 nM His-tagged protein dimer, 2% milk, 200 ng/uL BSA, 50 ng/uL salmon testes DNA, 0.02% TX-100; detection with Alexa 488 anti-His antibody;; high values mean tight binding;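 also: fluorescence intensity normalized to that of the highest-ranked 8-mer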
- test-conditions: protein: recombinant; tags: C-terminal His-tag (pET21a); chain copies: 2; dsDNA, one strand shown
The full ranking holds about 33,000 sequences; the median of “normalized occupancy” is about 0.075, and the highest 2% start at about 0.095. This excerpt belongs to a sample that is enriched for the highest values.
value-type: binding signal (normalized occupancy)
Enter your answer as a number in normalized occupancy; do not include the unit.

[Q] Return value of binding signal for input GGTGCAAA , no commentary.
[A] 0.0755

[Q] Return value of binding signal for input AAAAGCTA , no commentary.
[A] 0.0755

[Q] Return value of binding signal for input CGTATGAC , no commentary.
[A] 0.0817

[Q] Return value of binding signal for input CGCGCGCG , no commentary.
[A] 0.0873

[Q] Return value of binding signal for input CGCATGAG , no commentary.
[A] 0.0969

[Q] Return value of binding signal for input AGCGCCTA , no commentary.
[A] 0.0724

[Q] Return value of binding signal for input TAGACCTA , no commentary.
[A] 0.0731

[Q] Return value of binding signal for input GACATCCC , no commentary.
[A] 0.0774

[Q] Return value of binding signal for input CGCATGAA , no commentary.
[A] 0.0861

[Q] Return value of binding signal for input ACCACGAG , no commentary.
[A] 0.115

[Q] Return value of binding signal for input ACAACATG , no commentary.
[A] 0.0952

[Q] Return value of binding signal for input ATAACATG , no commentary.
[A] 0.0981

[Q] Return value of binding signal for input AATCGAAA , no commentary.
[A] 0.0785

[Q] Return value of binding signal for input ATCGTCGA , no commentary.
[A] 0.0747

[Q] Return value of binding signal for input GCCGTGCA , no commentary.
[A] 0.0768

[Q] Return value of binding signal for input CACTTTTA , no commentary.
[A] 0.0728

[Q] Return value of binding signal for input ACGCGCGA , no commentary.
[A] 0.0786

[Q] Return value of binding signal for input GACCATGA , no commentary.
[A] 0.0823

[Q] Return value of binding signal for input TCGCACGA , no commentary.
[A] 0.0806

[Q] Return value of binding signal for input AATTACGA , no commentary.
[A] 0.0775

[Q] Return value of binding signal for input CTCCATGC , no commentary.
[A] 0.0969

[Q] Return value of binding signal for input GGCATGAC , no commentary.
[A] 0.0858

----------
- target: MaxL homodimer (Homo sapiens, UniProt P61244 1-160)
- assay-overview: universal protein-binding microarray (PBM); PBS-based mixture, 10 nM His-tagged protein dimer, 2% milk, 200 ng/uL BSA, 50 ng/uL salmon testes DNA, 0.02% TX-100; detection with Alexa 488 anti-His antibody;; high values mean tight binding;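 also: fluorescence intensity normalized to that of the highest-ranked 8-mer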
- test-conditions: protein: recombinant; tags: C-terminal His-tag (pET21a); chain copies: 2; dsDNA, one strand shown
Over roughly 33,000 sequences, “normalized occupancy” has its median near 0.075; the highest 2% begin near 0.095. The list comes from a sample in which the highest values are over-represented; it also holds close analogues and randomly drawn sequences.
value-type: binding signal (normalized occupancy)
Enter your answer as a number in normalized occupancy; do not include the unit.

[Q] Return value of binding signal for input AACGTTGC , no commentary.
[A] 0.0766

[Q] Return value of binding signal for input ATAAATAG , no commentary.
[A] 0.0754

[Q] Return value of binding signal for input CAGGCTGA , no commentary.
[A] 0.0746

[Q] Return value of binding signal for input CACGTTGC , no commentary.
[A] 0.131

[Q] Return value of binding signal for input CCACATTA , no commentary.
[A] 0.093

[Q] Return value of binding signal for input GGTGATCA , no commentary.
[A] 0.0835

[Q] Return value of binding signal for input ACCGTAAC , no commentary.
[A] 0.0752

[Q] Return value of binding signal for input CAACATGC , no commentary.
[A] 0.094

[Q] Return value of binding signal for input CTTGTAAC , no commentary.
[A] 0.0775

[Q] Return value of binding signal for input AAAATTAG , no commentary.
[A] 0.0735

[Q] Return value of binding signal for input ATGATAAA , no commentary.
[A] 0.0793

[Q] Return value of binding signal for input AAAACATA , no commentary.
[A] 0.0798

[Q] Return value of binding signal for input CGTGACCC , no commentary.
[A] 0.0843

[Q] Return value of binding signal for input ACAAGGCT , no commentary.
[A] 0.0781

[Q] Return value of binding signal for input AATGGTAC , no commentary.
[A] 0.0764

[Q] Return value of binding signal for input CCACATGC , no commentary.
[A] 0.163

[Q] Return value of binding signal for input CCGGTGAG , no commentary.
[A] 0.0746

[Q] Return value of binding signal for input CGTGATCA , no commentary.
[A] 0.0962

[Q] Return value of binding signal for input CAACATGG , no commentary.
[A] 0.0932

[Q] Return value of binding signal for input AGGAACAG , no commentary.
[A] 0.0793

----------
- target: MaxL homodimer (Homo sapiens, UniProt P61244 1-160)
- assay-overview: universal protein-binding microarray (PBM); PBS-based mixture, 10 nM His-tagged protein dimer, 2% milk, 200 ng/uL BSA, 50 ng/uL salmon testes DNA, 0.02% TX-100; detection with Alexa 488 anti-His antibody;; high values mean tight binding;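 also: fluorescence intensity normalized to that of the highest-ranked 8-mer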
- test-conditions: protein: recombinant; tags: C-terminal His-tag (pET21a); chain copies: 2; dsDNA, one strand shown
Over roughly 33,000 sequences, “normalized occupancy” has its median near 0.075; the highest 2% begin near 0.095. This is one part of a sample in which the highest values are shown more often than they occur.
Assign class by binding signal: not lower than 0.08 normalized occupancy means 1.0; lower than 0.08 normalized occupancy means 0.0.

[Q] Is binding signal at least 0.08 normalized occupancy? Consider CCCCGTTA
[A] 0.0

[Q] Is binding signal at least 0.08 normalized occupancy? Consider AATCTTCA
[A] 0.0

[Q] Is binding signal at least 0.08 normalized occupancy? Consider GCGTTCAC
[A] 0.0

[Q] Is binding signal at least 0.08 normalized occupancy? Consider CGTGGTCA
[A] 1.0

[Q] Is binding signal at least 0.08 normalized occupancy? Consider CGTGGTAA
[A] 1.0

[Q] Is binding signal at least 0.08 normalized occupancy? Consider CCTTTGTA
[A] 0.0

[Q] Is binding signal at least 0.08 normalized occupancy? Consider CAGGCATG
[A] 1.0

[Q] Is binding signal at least 0.08 normalized occupancy? Consider ATTCGAGG
[A] 0.0

[Q] Is binding signal at least 0.08 normalized occupancy? Consider CGTAATTC
[A] 0.0
